EXPERIMENTAL ENDPOINT: melting point

COMPOUND	melting point
COCCN(C)S(=O)(=O)c1cc(-n2c(=O)cc(C(F)(F)F)n(C)c2=O)ccc1Cl	108 to 110 °C
COc1ccc(NC(=O)CCCCC(=O)N(C)OC)cc1	89 to 90 °C
CS(=O)(=O)N1C[C@H](S)C[C@H]1COc1ccccc1	78 to 79 °C
COc1cc(OC)cc(C(=O)NC(NC(=NC#N)Nc2ccc(Cl)nc2)C(C)(Cl)Cl)c1 (centres undefined)	193 to 195 °C
CCNc1cc(-c2c[nH]c(N)n2)ccn1	200 to 202 °C

Exercise: Entry COc1ccc(S(=O)(=O)Nc2cccc(C)c2NC(=O)c2ccncc2)cc1 : reported melting point = ?
Solution: 213 to 217 °C

Exercise: Entry CCOc1nsc(NC(=O)NC)c1C(N)=O : reported melting point = ?
Solution: 240 to 241 °C

Exercise: Entry CC(=O)NC(CC(=O)N[C@@H]1CN2C(=O)N(c3cc(Cl)nc(Cl)c3)C(=O)[C@@]2(Cc2ccc(OC(F)(F)F)cc2)C1)C(N)=O (some centres undefined) : reported melting point = ?
Solution: 153 °C

---

EXPERIMENTAL ENDPOINT: melting point

Solved entries:
MOLECULE	DATA VALUE
Fc1cccc(F)c1-c1nccc(-c2ccc(-c3ccc(C(F)(F)F)cc3)cc2)n1	141 to 142 °C
N#Cc1cc(F)c(Sc2nc[nH]n2)cc1F	185 °C
CCN(CC)C(=O)c1nc(C=Cc2ccc(OC)cc2)no1	69 to 70 °C
CCCCc1ccc(C#Cc2ccc(C=O)cc2)cc1	76 to 78 °C

Exercise: Entry O=C1N(c2c(Cl)cccc2Cl)Cc2cnc(Nc3ccccc3)nc2N1c1ccccc1 : reported melting point = ?
Solution: 138 °C

Exercise: Entry O=C1CCC(N2Cc3c(OCC4CCCOC4)cccc3C2=O)C(=O)N1 (stereo unspecified) : reported melting point = ?
Solution: 118 to 120 °C

---

Some compounds, each annotated with its measured melting point.
Just the number in °C, nothing appended.

SMILES STRING	DATA VALUE
ON=C(c1cccs1)c1cccc2nc(N[C@@H]3CCc4ccccc43)ccc12	180

Next, consider the following compound.
Exercise: Entry CC(=O)Nc1cc2c(cc1C#N)CCC2 : reported melting point = ?
Solution: 172

---

EXPERIMENTAL ENDPOINT: melting point

Solved entries:
COMPOUND	EXPERIMENTAL ENDPOINT	DATA VALUE
O=C(O)CCCCN(C(=O)c1ccc(Cl)cc1)c1ccccc1-c1ccccc1	melting point	170 to 173 °C
O=C(c1ccc(-c2ccccc2)cc1)N1Cc2cccnc2Nc2ccccc21	melting point	175 to 177 °C
CC[C@H](C)CCCCc1cnc(-c2ccc(OC(C)C)cc2)nc1	melting point	47.2 to 47.7 °C
O=C(Nc1ccc(-n2nc(C(F)(F)F)cc2C(F)(F)F)cc1)c1cccc(Cl)c1	melting point	142 to 144 °C
COC(=O)C=Cc1ccc(OCc2nc(-c3ccccc3)c(-c3ccccc3)o2)cc1	melting point	159 to 161 °C
C=CCOc1ccc(C[C@H](NC(C)=O)C(=O)OCC)cc1	melting point	69 to 70 °C
COC(=O)Cc1cc(C(=O)c2ccccc2Cl)ccc1O	melting point	119 °C
COc1cnc(Cl)n2nc(N)nc12	melting point	251 °C

Exercise: Entry O=C1CCCc2cc(Sc3cccc(F)c3)ccc21 : reported melting point = ?
Solution: 66.2 to 66.7 °C

Exercise: Entry O=C(OCC1OC(n2ccc(=O)[nH]c2=O)CC1OC(=O)c1ccccc1)c1ccccc1 (centres undefined) : reported melting point = ?
Solution: 223 to 225 °C

Exercise: Entry CC(C)CCC(=O)N[C@H]1CC[C@H](CCN2CCN(c3nccc4c3CCO4)CC2)CC1 : reported melting point = ?
Solution: 182 °C

Exercise: Entry Cc1cc([N+](=O)[O-])cc2c1OCC2 : reported melting point = ?
Solution: 80 to 81 °C

Exercise: Entry CN1CCN(c2ccc(C(=O)N[C@H]3CC[C@H](CCN4CCC(c5cccc6c5CCO6)CC4)CC3)cc2)CC1 : reported melting point = ?
Solution: 241 °C

Exercise: Entry CCCc1cc(F)c(C(=O)O)cc1O : reported melting point = ?
Solution: 134 to 136 °C

Exercise: Entry O=C([C@@H]1CCCN1S(=O)(=O)c1ccc2ccccc2c1)N1C[C@H](c2ccc(Cl)cc2)Sc2ccc3ccccc3c21 : reported melting point = ?
Solution: 204 to 205 °C

---

EXPERIMENTAL ENDPOINT: melting point

COMPOUND	melting point
Cc1c(C)c2c(c(C)c1N)CC(C)(CN1CCC(CCCc3ccccc3)CC1)O2 (centres undefined)	79 to 80 °C

Exercise: Entry c1ccc(OCCSCc2nnc(-c3ccc(OCCN4CCCCCC4)cc3)o2)cc1 : reported melting point = ?
Solution: 40 °C

Exercise: Entry CC(C)n1nc(-c2cc(C(=O)N3CCOCC3)cnc2-c2ccccc2)ccc1=O : reported melting point = ?
Solution: 132 to 133 °C

Exercise: Entry CC(C)(C)OC(=O)Nc1c(C#N)cnn1-c1ccc(Cl)c(Cl)c1Cl : reported melting point = ?
Solution: 140 to 141 °C

---

Some compounds, each annotated with its measured melting point.

COMPOUND	melting point
COc1cc(-c2nc(-c3ccc(N(C)C)cc3)c(C)[nH]2)cc(OC)c1OP(=O)(O)O	196 to 198 °C

Exercise: Entry CN1CCC(C2=CC(=O)CCC2)C1=O (stereo not drawn) : reported melting point = ?
Solution: 42 to 46 °C

Exercise: Entry CN1CCN(Cc2ccc(-c3cc4c(Nc5cccc6[nH]ccc56)c(C#N)cnc4s3)cc2)CC1 : reported melting point = ?
Solution: > 245 °C

Exercise: Entry CC(C)(C)OC(=O)N1CCC(C(=O)NCCC(=O)OCc2ccccc2)C1 (stereo not drawn) : reported melting point = ?
Solution: 83 to 84 °C

Exercise: Entry CC(C)(C)C(=O)c1c[nH]c2ncc(-c3cccc(NS(=O)(=O)c4ccccc4)c3)nc12 : reported melting point = ?
Solution: 217 to 219 °C

Exercise: Entry Cc1cnc2c(=O)[nH]c3ccc(Cl)cc3n12 : reported melting point = ?
Solution: > 300 °C

Exercise: Entry CC(=O)OC1C(CO)OC(NC(=O)N(CCCl)N=O)C(OC(C)=O)C1OC(C)=O (stereo not drawn) : reported melting point = ?
Solution: 143 to 144 °C

Exercise: Entry CCNC(=O)n1nc(Oc2c(Cl)cc(C(F)(F)F)cc2[N+](=O)[O-])cc1C : reported melting point = ?
Solution: 98 to 99 °C

Exercise: Entry CCCOC(C)c1ccc(-c2ccc(OCc3ccccc3)cc2)cc1 (single isomer, unassigned; (+)) : reported melting point = ?
Solution: 106 to 108 °C

Exercise: Entry CC(=O)N(CCCC(=O)O)C(c1ccccc1)c1ccccc1 : reported melting point = ?
Solution: 173 to 174 °C

Exercise: Entry Cc1cccc(NC(=O)NC2CN(C(=O)C3CC3)c3ccccc3N(CC(=O)c3ccccc3C)C2=O)c1 (stereo not drawn) : reported melting point = ?
Solution: 207 to 209 °C

Exercise: Entry O=C(O)c1cc2ccc3c(c2c(-c2ccc4c(c2)OCO4)c1COCc1ccccc1)OCO3 : reported melting point = ?
Solution: 219 to 221 °C

Exercise: Entry Cc1ccc(NC(=O)c2cccc(N3CCOCC3)c2)cc1[N+](=O)[O-] : reported melting point = ?
Solution: 149 to 150 °C

Exercise: Entry NCCc1cccc(Cn2ccc(OCc3ccc(F)cc3F)c(Br)c2=O)c1 : reported melting point = ?
Solution: 70 to 74 °C

---

Some molecules, each annotated with its measured melting point.

Exercise: Entry Cc1ccc(-c2ccc3c(c2)C=C(C(=O)Nc2ccc(CNC(CO)CO)cc2)CC3)cc1 : reported melting point = ?
Solution: 189 to 193 °C

---

Some compounds, each annotated with its measured melting point.
Just the number in °C, nothing appended.

Solved entries:
COMPOUND	melting point, °C
O=C(O)c1cnc2cc(C(F)(F)F)ccc2c1Cl	310
COc1ccc(CCNC(=O)C(=O)Nc2ccncc2)cc1OC1CCCC1	182
CC(=O)Nc1coc2ccc(C(C)(C)C)cc2c1=S	215

Next, consider the following compound.
Exercise: Entry CCOC(=O)C1CC1c1cc(=O)c2ccc3ccccc3c2o1 (stereo not given) : reported melting point = ?
Solution: 106

---

Some compounds, each annotated with its measured melting point.

COMPOUND	melting point
COc1ccc2nc3ccc(CC(=O)O)cn3c(=O)c2c1	281 to 282 °C
C=CC12CCc3cc(NS(=O)(=O)O)ccc3C1CCC1(C)C(O)CCC12 (centres undefined)	82 to 86 °C
COC(=O)c1cccc2nc(N3CCCCC3)n(Cc3ccc(-c4ccccc4-c4nnn[nH]4)cc3)c12	146 to 150 °C

Exercise: Entry Brc1nsc2nc3ccccc3n12 : reported melting point = ?
Solution: 189 to 190 °C

Exercise: Entry CC(=Cc1ccccc1)c1ccc2c(c1)C(C)(C)C(O)C2(C)C (centres undefined) : reported melting point = ?
Solution: 63 to 67 °C

Exercise: Entry O=C(O)c1cc(NCc2ccccc2)ccc1O : reported melting point = ?
Solution: 174 °C

Exercise: Entry NC(=O)c1ccc(C(=O)N2Cc3cccn3Cc3ccccc32)cc1 : reported melting point = ?
Solution: 226 to 228 °C

Exercise: Entry CC(=O)C(=O)Oc1c(C)cc(Nc2ccn(-c3ccccc3)n2)cc1C : reported melting point = ?
Solution: 123 to 125 °C

Exercise: Entry O=C(O)Cc1cc(Cl)c2c(c1)CCC(c1ccccc1F)N2 (centres undefined) : reported melting point = ?
Solution: 127 to 129 °C

Exercise: Entry O=C(NCc1c[nH]c(=S)n1[C@H]1CCc2c(F)cc(F)cc2C1)c1ccccc1 : reported melting point = ?
Solution: 260 to 261 °C

Exercise: Entry O=C(Nc1ccccc1O)C(=O)Nc1ccccc1O : reported melting point = ?
Solution: > 250 °C
